Data origin: ChEMBL document CHEMBL5291721

Below are AC50 values measured for Kappa-type opioid receptor (Homo sapiens, UniProt P41145).

compound: CC(CCc1ccccc1)NC(C)C(O)c1ccc(O)cc1 (stereo unspecified)
AC50: 4.98 µM
//
compound: Cc1cnc(NC(=O)C2=C(O)c3ccccc3S(=O)(=O)N2C)s1
AC50: > 10 µM
//
compound: COc1cc(OC)c(C(=O)CCCN2CCCC2)c(OC)c1
AC50: 4.3 µM
//
compound: COc1ccc(/C=C/C(=O)Nc2ccccc2C(=O)O)cc1OC
AC50: > 30 µM
//
compound: COc1ccc(C(CN(C)C)C2(O)CCCCC2)cc1 (stereo unspecified)
AC50: > 10 µM
//
compound: C#C[C@]1(O)CC[C@H]2[C@@H]3CCC4=CC(=O)CCC4=C3C=C[C@@]21CC
AC50: 23 µM
